# credit: ChEMBL document CHEMBL1156759

target: Neutrophil elastase (Homo sapiens); assay: Inhibition of human Elastase
Sequence (P08246 whole entry): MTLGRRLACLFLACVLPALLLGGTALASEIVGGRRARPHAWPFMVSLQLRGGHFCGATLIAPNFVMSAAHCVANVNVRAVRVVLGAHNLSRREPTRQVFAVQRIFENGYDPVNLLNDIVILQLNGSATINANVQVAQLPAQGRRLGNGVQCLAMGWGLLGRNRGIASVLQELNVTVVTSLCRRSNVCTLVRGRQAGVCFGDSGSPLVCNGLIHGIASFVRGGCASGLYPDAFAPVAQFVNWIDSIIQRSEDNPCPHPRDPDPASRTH
quantity-kind: pIC50
Give bare numbers, as −log10 of the molar value.

Task item: Need pIC50 of `N#Cc1nc(Nc2cc(F)cc(F)c2)c2ncn(CC(F)F)c2n1` , thanks.
Reply: 4.07

###

assay: Inhibition of recombinant Trypanosoma brucei rhodesain after 5 mins by spectrofluorimetric analysis
quantity-kind: IC50
Field: value (include unit after the number)

Give IC50 for each listed item.
1. CCn1cnc2c(Nc3cccc(Cl)c3)nc(C#N)nc21
2. N#Cc1nc(Nc2cccc([N+](=O)[O-])c2)nc(NC2CCCC2)n1
3. N#Cc1nc(Nc2ccc(Br)cc2)nc(NC2CCCC2)n1
4. N#Cc1nc(Nc2cccc(C(F)(F)F)c2)nc(NC2CCCC2)n1
5. N#Cc1nc(Nc2cccc(Cl)c2)nc(NC2CCCC2)n1

Reply:
1. 10 nM
2. 8 nM
3. 100 nM
4. 70 nM
5. 6 nM

###

I'd appreciate it if you could supply IC50 values for the items below.
test: Inhibition of recombinant Trypanosoma brucei cathepsin B after 5 mins by spectrofluorimetric analysis

Some entries whose results are on file:
{"columns": ["structure-as-smiles", "IC50"],
 "data": [
  ["N#Cc1nc(Nc2cccc([N+](=O)[O-])c2)nc(NC2CCCC2)n1", "> 1000 nM"],
  ["CCOc1nc(C#N)nc(N2CCCCC2)n1", "> 1000 nM"],
  ["N#Cc1nc(Nc2ccc(F)cc2)nc(NC2CCCC2)n1", "> 1000 nM"],
  ["N#Cc1nc(Nc2cccc(C(F)(F)F)c2)nc(NC2CCCC2)n1", "> 10000 nM"],
  ["N#Cc1nc(Nc2cc(F)cc(F)c2)nc(NC2CCCC2)n1", "4000 nM"]
]}

Consider now this further molecule.
Task item: Give the measured IC50 of `N#Cc1nc(NCC(F)F)nc(Nc2cc(F)cc(F)c2)n1` .
Reply: 1000 nM
